Test system: TRPC4 (transient receptor potential cation channel C4 beta), mouse
Test: potentiation of DAMGO EC20 TRPC4 response – cell-based, second round, Fluo-4, HEK293 TRPC4beta/mu-opioid, 1 µM, confirmation (AID 2554)
Conditions: DAMGO EC20, Fluo-4 calcium flux, at 1 µM
The source made the active and inactive calls.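 Rule for the calls: active = primary screen hit whose fluorescence ratio, in both repeats, exceeds the weak agonist control mean by 3 SD; inactive = the rest.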
Labels: active, inactive

{"columns": ["Molecule", "System Under Test", "Answer Label"],
 "data": [
  ["Cc1cccc(N(C(=O)c2snc(C(N)=O)c2N)C(C(=O)NCC2CCCO2)c2ccc3ncccc3c2)c1 (centres undefined)", "TRPC4 (transient receptor potential cation channel C4 beta), mouse", "inactive"],
  ["CC(=O)Nc1cccc(C(=O)OC(C(=O)c2ccc(C)cc2)c2ccccc2)c1 (centres undefined)", "TRPC4 (transient receptor potential cation channel C4 beta), mouse", "inactive"],
  ["O=[N+]([O-])c1ccc(S(=O)(=O)NCCCc2ccccc2)cc1", "TRPC4 (transient receptor potential cation channel C4 beta), mouse", "inactive"],
  ["CCn1c2ccccc2c2cc(/C=N/NC(=O)c3cc(O)cc(O)c3)ccc21", "TRPC4 (transient receptor potential cation channel C4 beta), mouse", "inactive"],
  ["CC(=O)Nc1cccc(C(=O)NCC2(N3CCCCC3)CCCCC2)c1", "TRPC4 (transient receptor potential cation channel C4 beta), mouse", "inactive"],
  ["COc1nc(N=C(N)N)nc2ccc(C)cc12", "TRPC4 (transient receptor potential cation channel C4 beta), mouse", "inactive"],
  ["Cc1cc(C)c(C)c(S(=O)(=O)NCc2ccco2)c1C", "TRPC4 (transient receptor potential cation channel C4 beta), mouse", "inactive"],
  ["CC1(C)CC2CC(C)(CN2CC(O)COc2ccccc2)C1 (centres undefined)", "TRPC4 (transient receptor potential cation channel C4 beta), mouse", "inactive"],
  ["CCC1CCCCN1Cc1nc2c(c(=O)n(C)c(=O)n2C)n1Cc1ccccc1 (centres undefined)", "TRPC4 (transient receptor potential cation channel C4 beta), mouse", "inactive"],
  ["NNc1ccc(Cc2ccc(Cl)cc2Cl)nn1", "TRPC4 (transient receptor potential cation channel C4 beta), mouse", "inactive"],
  ["CC1CCN(CCCOc2ccc(OCc3ccccc3)cc2)CC1", "TRPC4 (transient receptor potential cation channel C4 beta), mouse", "inactive"],
  ["Cc1ccc(-n2cc(CNC(C)c3cnn(C)c3C)c(-c3ccc(F)cc3)n2)cc1 (centres undefined)", "TRPC4 (transient receptor potential cation channel C4 beta), mouse", "inactive"],
  ["CCOC(=O)C1=C(NC(=S)NC(=O)c2ccccc2)c2ccccc2CC1(C)C", "TRPC4 (transient receptor potential cation channel C4 beta), mouse", "inactive"],
  ["CCOC(=O)CSc1nc2ccccc2c(=O)n1CC1CCCC1", "TRPC4 (transient receptor potential cation channel C4 beta), mouse", "inactive"],
  ["CC(C)(C)C(=O)NC(=S)NNC(=O)c1sc2ccccc2c1Cl", "TRPC4 (transient receptor potential cation channel C4 beta), mouse", "inactive"],
  ["CC12CN3CC(C)(CN(C1)C3c1ccc(Cl)cc1Cl)C2O (centres undefined)", "TRPC4 (transient receptor potential cation channel C4 beta), mouse", "inactive"],
  ["CCCSc1nc(C)cc(C)c1S(=O)(=O)c1ccccc1C", "TRPC4 (transient receptor potential cation channel C4 beta), mouse", "inactive"],
  ["Cc1ccc(NC(=S)N(CCCN(C)C)Cc2cc3cc4c(cc3[nH]c2=O)OCO4)c(C)c1", "TRPC4 (transient receptor potential cation channel C4 beta), mouse", "inactive"],
  ["O=C(O)c1ccc(-c2ccc(/C=N/Nc3ccc([N+](=O)[O-])cc3)o2)cc1", "TRPC4 (transient receptor potential cation channel C4 beta), mouse", "inactive"],
  ["Cn1c(N2CCN(C(=O)Nc3ccc(F)cc3)CC2)nc2ccccc21", "TRPC4 (transient receptor potential cation channel C4 beta), mouse", "inactive"],
  ["CCCN(CCC)CCCNC(=O)c1ccc2c(Cl)c3c(nc2c1)CCC3", "TRPC4 (transient receptor potential cation channel C4 beta), mouse", "inactive"],
  ["CSC1=NC2(CCCCC2)C2=C(CCCC2)N1", "TRPC4 (transient receptor potential cation channel C4 beta), mouse", "inactive"],
  ["CCOc1ccc(Nc2nc(Cc3nnc(SCC(=O)c4ccc(C)cc4)o3)cs2)cc1", "TRPC4 (transient receptor potential cation channel C4 beta), mouse", "inactive"],
  ["COc1cccc(OCC(=O)NC2CCCCC2)c1", "TRPC4 (transient receptor potential cation channel C4 beta), mouse", "inactive"],
  ["Cc1ccc(CS(=O)(=O)CCC(=O)NCCC2=CCCCC2)cc1", "TRPC4 (transient receptor potential cation channel C4 beta), mouse", "active"],
  ["COCCn1c(SCC(=O)Nc2ccc(S(=O)(=O)N3CCOCC3)cc2)nc2ccccc21", "TRPC4 (transient receptor potential cation channel C4 beta), mouse", "inactive"],
  ["CC(C)(C)C(=O)/C=c1\\s/c(=C\\c2ccc(-c3ccc([N+](=O)[O-])cc3)o2)c(=O)n1CC(=O)NC(N)=O", "TRPC4 (transient receptor potential cation channel C4 beta), mouse", "inactive"],
  ["CCOc1c(Cl)cc(CNCC(O)c2ccccc2)cc1OC (centres undefined)", "TRPC4 (transient receptor potential cation channel C4 beta), mouse", "inactive"],
  ["CN(C)S(=O)(=O)N1CCC(CCCC2CCN(S(=O)(=O)N(C)C)CC2)CC1", "TRPC4 (transient receptor potential cation channel C4 beta), mouse", "inactive"],
  ["CC1CC(C)CN(CCCNC(=O)c2ccc3c(c2)N(Cc2ccccc2)C(=O)c2ccccc2S3=O)C1 (centres undefined)", "TRPC4 (transient receptor potential cation channel C4 beta), mouse", "inactive"],
  ["Cc1cc(-c2cn3ccccc3n2)c(C)n1-c1ccccc1", "TRPC4 (transient receptor potential cation channel C4 beta), mouse", "inactive"],
  ["CC(C)CCn1c(Sc2nc3ccccc3o2)nc2c1c(=O)[nH]c(=O)n2C", "TRPC4 (transient receptor potential cation channel C4 beta), mouse", "inactive"],
  ["CN1CCN(Cc2nc3c(c(=O)[nH]c(=O)n3C)n2Cc2c(F)cccc2Cl)CC1", "TRPC4 (transient receptor potential cation channel C4 beta), mouse", "active"],
  ["CC(=O)Oc1ccc(NC(=O)CCC2CCCCC2)c(C(=O)O)c1", "TRPC4 (transient receptor potential cation channel C4 beta), mouse", "inactive"],
  ["COCCn1c(SCc2ccc(F)cc2)nc2ccccc2c1=O", "TRPC4 (transient receptor potential cation channel C4 beta), mouse", "inactive"],
  ["O=[N+]([O-])c1cccc(CSc2nnc(Cc3ccccc3)n2-c2ccc(F)cc2)c1", "TRPC4 (transient receptor potential cation channel C4 beta), mouse", "inactive"],
  ["C=CCn1c(SCCN2CCCC2)nc2c([nH]c3ccccc32)c1=O", "TRPC4 (transient receptor potential cation channel C4 beta), mouse", "active"],
  ["COc1ccccc1CC(Cc1nc2ccccc2[nH]1)c1nc2ccccc2[nH]1 (centres undefined)", "TRPC4 (transient receptor potential cation channel C4 beta), mouse", "inactive"],
  ["Cc1cc(Nc2ccc(C)c(C)c2)c2ccccc2n1", "TRPC4 (transient receptor potential cation channel C4 beta), mouse", "inactive"],
  ["C#CC[N+]1(CC#Cc2cccc3ccccc23)CCOCC1", "TRPC4 (transient receptor potential cation channel C4 beta), mouse", "inactive"],
  ["Cc1ccc2cc(CN(CCN3CCOCC3)C(=O)NCc3ccccc3)c(=O)[nH]c2c1C", "TRPC4 (transient receptor potential cation channel C4 beta), mouse", "inactive"],
  ["Clc1ccc(CN2C3=NCCN3c3ccccc32)cc1Cl", "TRPC4 (transient receptor potential cation channel C4 beta), mouse", "inactive"],
  ["C/C(CC(=O)NCc1ccc(Cl)cc1)=N\\NC(=O)COc1ccc(C)cc1Br", "TRPC4 (transient receptor potential cation channel C4 beta), mouse", "inactive"],
  ["COC(=O)c1ccc(COc2ccc(/C=N/Nc3nc(C)cc(=O)[nH]3)cc2)cc1", "TRPC4 (transient receptor potential cation channel C4 beta), mouse", "inactive"]
]}

---

System: TRPC4 (mouse), co-expressed with 5HT1a in HEK293
Assay: enhancement of serotonin-evoked TRPC4 response – cell-based, second counter screen, HEK293 TRPC4/5HT1a, Fluo-4, counter-screen for TRPC4 potentiator project, confirmation (AID 434979)
Details: Fluo-4 calcium flux, at 10 µM, serotonin added at its EC20 dose
Calls of active or inactive are those of the source.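 The calls were made as follows: active = signal rise over 3 SD above mean of control wells given weak agonist, in both repeats and first screen; inactive = the rest.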
Labels: active, inactive

{"columns": ["Molecule", "Answer Label"],
 "data": [
  ["CCOC(=O)C1(CC2CC2)CCN(Cc2cnc(-c3ccccc3C)nc2)CC1", "inactive"],
  ["CCN1CCN(Cc2nc3c(c(=O)[nH]c(=O)n3C)n2Cc2ccccc2Cl)CC1", "active"],
  ["CC(=O)N1CCN(c2ccccc2NC(=O)c2ccc3ccccc3c2)CC1", "inactive"],
  ["CCOC(=O)C1=NN(c2ccccc2C)C2=NC(C)=C(C(=O)OC)C(c3cccc(OC)c3)N12 (centres undefined)", "inactive"],
  ["CN(C)C(CNC(=O)NC1CCCCC1)c1cccnc1 (centres undefined)", "inactive"],
  ["Cc1ccc(S(=O)(=O)N2CCN(c3cc4c(cc3[N+](=O)[O-])n(C)c(=O)n4C)CC2)cc1", "active"],
  ["CSc1ccc2nnc(-c3cccc(F)c3)n2n1", "active"],
  ["CN1CCN(Cc2cccc(Oc3ccc(Cl)cc3)c2)CC1", "active"],
  ["CC1(C(=O)OCc2cc(=O)n3cc(Br)ccc3n2)CC1(Cl)Cl (centres undefined)", "active"],
  ["Cc1ccc(C(=O)Nc2nnc(C3=COCCO3)o2)cc1C", "inactive"],
  ["O=S(=O)(c1ccccc1Cl)N1CCC(Cc2ccccc2)CC1", "active"],
  ["CCN(Cc1ccccc1)S(=O)(=O)c1ccc(C(=O)N(CCCN(C)C)c2nc3c(F)cccc3s2)cc1", "inactive"],
  ["CN(Cc1ccco1)C(=O)Cn1ncc2c([nH]c3ccccc32)c1=O", "active"],
  ["Cc1cc(C)c(C)c(S(=O)(=O)NCc2ccco2)c1C", "active"],
  ["Cc1cc(OCC(=O)N2CCCC2)cc(C)c1Cl", "inactive"],
  ["CCCCN(C)CCNC(=O)c1cc2c(-c3cccc(OC)c3)nn(C)c2s1", "active"],
  ["N=c1c2c(n(Cc3ccc(Br)cc3)c3c1CCC3)CCCC2", "inactive"],
  ["O=[N+]([O-])c1cccc(-c2nnc(C3CC3)o2)c1", "inactive"],
  ["O=S(=O)(c1ccc(Cl)cc1Br)N1CCCCC1", "inactive"],
  ["O=C(C[n+]1cccc(CNC(=O)c2ccc(OC(F)F)cc2)c1)Nc1ccc(SC(F)F)cc1", "inactive"],
  ["N=c1n(Cc2ccccc2)c2ccccc2n1CC(O)COc1ccccc1 (centres undefined)", "inactive"],
  ["Cc1cc([N+](=O)[O-])ccc1NCc1ccco1", "inactive"],
  ["CC(=O)Nc1nc(-c2ccc3c(c2)CCN3C(=O)C2CC2)c(C)s1", "inactive"],
  ["CN(C)CCCn1c(=O)n(CCc2ccccc2)c(=O)c2c3c(sc21)CCCCC3", "inactive"],
  ["CCCCN(CC)CCNC(=O)Cn1cc2c(n1)-c1c(oc(C(=O)N3CCCC3)c1C)CC2", "inactive"],
  ["CCCCC(CC)c1nnc(NC(=O)c2cccs2)s1 (centres undefined)", "inactive"],
  ["CN(C)C(CNc1ccc(C(N)=O)cc1[N+](=O)[O-])c1ccccc1 (centres undefined)", "inactive"],
  ["Cc1ccccc1Cn1c(CN2CCc3ccccc3C2)nc2c1c(=O)n(C)c(=O)n2C", "active"],
  ["Cn1c(=O)c2c(nc(SCc3cccnc3)n2Cc2ccc(F)cc2)n(C)c1=O", "inactive"],
  ["Cc1ccc2[nH]c3c(N4CCc5ccccc5C4)ncnc3c2c1", "inactive"],
  ["COc1cc(/C=C2\\C(=N)N3N=C(S(C)(=O)=O)SC3=NC2=O)ccc1OC(=O)c1cccs1", "inactive"],
  ["Cc1ccc(C)c(N(CC(=O)NC2CCCC2)C(=O)c2csnn2)c1", "inactive"],
  ["Cc1ccc(C)c(-n2cc(CNCCCn3cccn3)c(-c3ccccc3)n2)c1", "inactive"],
  ["O=C1CN=C(Nc2cccc(C(F)(F)F)c2)N1C1CCCC1", "inactive"],
  ["Cc1cccc(/C=N/NC(=O)c2cc(Br)ccc2O)n1", "active"],
  ["COc1ccc(C(CNC(=O)C2CCN(S(=O)(=O)c3ccc(F)cc3)CC2)N(C)C)cc1 (centres undefined)", "inactive"],
  ["CN1CCN(NC(=O)c2cccc(Br)c2)CC1", "active"],
  ["COc1ccc(C(CNc2ncnc3sc(C)c(C)c23)N(C)C)cc1 (centres undefined)", "inactive"],
  ["CCOc1cc(/C=C2\\C(=N)N3N=CSC3=NC2=O)ccc1OS(=O)(=O)c1ccccc1", "inactive"],
  ["C=CCn1c(/N=C/c2ccc(N(C)C)cc2)nc2ccccc21", "active"],
  ["CCc1ccccc1NC(=S)N(CCCN(C)C)Cc1cc2cc3c(cc2[nH]c1=O)OCO3", "inactive"],
  ["COC(=O)c1cc(N2CCNCC2)nc2ccccc12", "active"],
  ["CCCCN1C(=O)C(=O)N(CC(=O)Nc2cc(OCC)c(N3CCOCC3)cc2OCC)C1=O", "inactive"],
  ["CCOc1ccc2c(C)nc(NC3=NC(C)(C)C=C(C)N3)nc2c1", "inactive"]
]}
